Target: Dipeptidyl peptidase 4 (Homo sapiens, UniProt P27487)
Sequence (P27487 whole entry): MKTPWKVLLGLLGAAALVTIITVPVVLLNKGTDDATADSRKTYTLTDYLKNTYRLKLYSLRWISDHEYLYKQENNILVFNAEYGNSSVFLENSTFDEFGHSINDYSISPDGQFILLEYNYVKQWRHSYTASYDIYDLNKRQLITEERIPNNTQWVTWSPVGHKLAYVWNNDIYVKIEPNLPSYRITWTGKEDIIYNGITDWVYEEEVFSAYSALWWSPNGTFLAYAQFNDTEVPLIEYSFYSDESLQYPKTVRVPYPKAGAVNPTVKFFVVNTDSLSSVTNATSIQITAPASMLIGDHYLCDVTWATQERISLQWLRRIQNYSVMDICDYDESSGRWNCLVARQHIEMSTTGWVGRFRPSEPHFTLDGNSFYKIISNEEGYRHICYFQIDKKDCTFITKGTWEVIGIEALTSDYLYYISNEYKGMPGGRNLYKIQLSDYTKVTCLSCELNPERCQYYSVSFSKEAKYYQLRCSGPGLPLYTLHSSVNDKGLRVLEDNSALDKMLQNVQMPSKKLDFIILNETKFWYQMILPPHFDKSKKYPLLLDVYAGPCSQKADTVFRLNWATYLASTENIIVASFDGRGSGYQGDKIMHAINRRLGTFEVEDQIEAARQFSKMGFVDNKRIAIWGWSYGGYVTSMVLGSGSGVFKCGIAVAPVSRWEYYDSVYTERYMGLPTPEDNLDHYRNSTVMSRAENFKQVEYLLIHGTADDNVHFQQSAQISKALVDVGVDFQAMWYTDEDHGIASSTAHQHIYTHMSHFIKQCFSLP
pIC50: −log10 of the molar value.
# binarize pIC50: threshold 4 inclusive, high side Met, low side Not met

INSERT INTO measurements (molecule, group_label) VALUES
  ('N=C(N)NCC[C@H](N)C(=O)N1CCCCC1', 'Not met'),
  ('N[C@@H](CCNCCCc1ccccc1)C(=O)N1CCCCC1', 'Not met'),
  ('N[C@@H](CCNCc1ccccc1)C(=O)N1CCCCC1', 'Not met');

Ask | Reported pIC50 at or above 4? N#Cc1cccc(CNCC[C@H](N)C(=O)N2CCCCC2)c1
Reply | Not met

Ask | What would you report for CN[C@@H](CCNCc1ccc(Cl)cc1)C(=O)N1CCCCC1 ?
Reply | Not met

Ask | What would you report for N[C@@H](CCNc1ncccc1[N+](=O)[O-])C(=O)N1CCCCC1 ?
Reply | Met

Ask | What would you report for N[C@@H](CCNCc1ccc(Cl)cc1)C(=O)N1CCCC(F)C1 (stereo not given in full) ?
Reply | Not met

Ask | What would you report for N#C[C@@H]1CCCCN1C(=O)[C@@H](N)CCN ?
Reply | Not met

Ask | What would you report for COc1ccccc1CNCC[C@H](N)C(=O)N1CCCCC1 ?
Reply | Not met

Ask | What would you report for N#CC1CCCCN1C(=O)[C@@H](N)CCNCc1ccc(Cl)cc1 (stereo not given in full) ?
Reply | Met

* * *

Target: Dipeptidyl peptidase II and dipeptidyl peptidase IV (DPP2 and DPP4) (Homo sapiens) (UniProt P27487+Q9UHL4)
Test: Ratio of IC50 for DPP IV to that of IC50 for DPP II
Format: protein assay
Listed next: entries and their corresponding SI.
Respond with the number and no other words.

INSERT INTO results (smiles_string, reported_value) VALUES
  ('N[C@@H](CCNCc1ccncc1)C(=O)N1CCCCC1', 170000),
  ('N[C@@H](CCNCc1cccs1)C(=O)N1CCCCC1', 350000),
  ('N#C[C@@H]1CCCCN1C(=O)[C@@H](N)CCN', 4000);

Ask | Please report the recorded SI for N[C@@H](CCNC1CCNCC1)C(=O)N1CCCCC1 .
Reply | 750

* * *

Molecular target: Dipeptidyl peptidase 4 (Homo sapiens, UniProt P27487)
pIC50: −log10 of the molar value.
# binarize pIC50: threshold 4 inclusive, high side true, low side false

Example results:
INSERT INTO measurements (molecule, assayed_target, group_label) VALUES
  ('N[C@@H](CCNCc1ccc(Cl)cc1)C(=O)N1CCC(F)CC1', 'Dipeptidyl peptidase 4 (Homo sapiens, UniProt P27487)', 'true'),
  ('NCC[C@H](N=C(N)N)C(=O)N1CCCCC1', 'Dipeptidyl peptidase 4 (Homo sapiens, UniProt P27487)', 'false'),
  ('N[C@@H](CCNCc1cccc(Cl)c1)C(=O)N1CCCCC1', 'Dipeptidyl peptidase 4 (Homo sapiens, UniProt P27487)', 'false');

Ask | Reported pIC50 at or above 4? N[C@@H](CCNCc1ccc(Cl)cc1)C(=O)N1CC=CCC1
Reply | false

Ask | What would you report for COc1ccc(CNCC[C@H](N)C(=O)N2CCCCC2)cc1 ?
Reply | false

Ask | What would you report for N[C@@H](CCNC1CCNCC1)C(=O)N1CCCCC1 ?
Reply | true

Ask | What would you report for N[C@@H](CCNC(=O)c1ccccc1)C(=O)N1CCCCC1 ?
Reply | false

Ask | What would you report for N[C@@H](CCNCc1cccs1)C(=O)N1CCCCC1 ?
Reply | false

* * *

Target: Dipeptidyl peptidase II and dipeptidyl peptidase IV (DPP2 and DPP4) (Homo sapiens) (UniProt P27487+Q9UHL4)
Test: Ratio of IC50 for DPP IV to that of IC50 for DPP II
Format: protein assay
Checkbox rule: SI lower than 200000 = YES; SI not lower than 200000 = NO.

Example results:
INSERT INTO results (compound, group_label) VALUES
  ('N[C@@H](CCNCc1ccccc1Cl)C(=O)N1CCCCC1', 'NO'),
  ('N[C@@H](CCN(Cc1ccccc1)Cc1ccccc1)C(=O)N1CCCCC1', 'NO');

Ask | Dear colleague, could you confirm whether SI of N[C@@H](CCNCc1cccc(Cl)c1)C(=O)N1CCCCC1 falls below 200000? Thanks.
Reply | YES

Ask | What would you report for N[C@@H](CCNCc1ccc(Cl)cc1)C(=O)N1CC=CCC1 ?
Reply | YES

Ask | What would you report for N[C@@H](CCNCc1ccccc1OCc1ccccc1)C(=O)N1CCCCC1 ?
Reply | NO

* * *

Molecular target: Dipeptidyl peptidase 2 (Homo sapiens)
outcome-measure: IC50 (nM)
# number only, unit nM dropped from output

Record excerpt, results attached:
INSERT INTO results (compound, unit_of_measurement, reported_value) VALUES
  ('CN(CC[C@H](N)C(=O)N1CCCCC1)Cc1ccc(Cl)cc1', 'nM', 0.22),
  ('N[C@@H](CCNCc1cccs1)C(=O)N1CCCCC1', 'nM', 0.8),
  ('N[C@@H](CCN(Cc1ccc(Cl)cc1)Cc1ccc(Cl)cc1)C(=O)N1CCCCC1', 'nM', 4.2),
  ('N[C@@H](CCN(Cc1ccccc1)Cc1ccccc1)C(=O)N1CCCCC1', 'nM', 0.6),
  ('N[C@@H](CCNCc1ccc2ccccc2c1)C(=O)N1CCCCC1', 'nM', 1.1);

Ask | Please report the recorded IC50 for COc1ccc(CNCC[C@H](N)C(=O)N2CCCCC2)c(OC)c1 .
Reply | 2.7

Ask | What would you report for N#Cc1cccc(CNCC[C@H](N)C(=O)N2CCCCC2)c1 ?
Reply | 2.7

* * *

Listed next: entries and their corresponding pIC50.
Target: UniProtKB P27487
pIC50: −log10 of the molar value.

Record excerpt, results attached:
INSERT INTO measurements (molecule, assayed_target, outcome_measure, reported_value) VALUES
  ('NCC[C@H](NCc1ccccc1)C(=O)N1CCCCC1', 'UniProtKB P27487', 'pIC50', '< 3.00'),
  ('N[C@@H](CCNCc1ccc(Cl)cc1)C(=O)N1CCC(O)CC1', 'UniProtKB P27487', 'pIC50', '< 3.00'),
  ('N[C@@H](CCNCc1ccc(Cl)cc1)C(=O)N1CCCC(O)C1 (some centres undefined)', 'UniProtKB P27487', 'pIC50', '< 3.00');

We next turn to a different molecule, shown below.
Ask | Notebook entry, UniProtKB P27487 assay: pIC50 of N[C@@H](CCN(Cc1ccc(Cl)cc1)Cc1ccc(Cl)cc1)C(=O)N1CCCCC1 = ?
Reply | < 3.90

* * *

Molecular target: Dipeptidyl peptidase II and dipeptidyl peptidase IV (DPP2 and DPP4) (Homo sapiens) (UniProt P27487+Q9UHL4)
Assay: Ratio of IC50 for DPP IV to that of IC50 for DPP II
Type: protein assay
outcome-measure: SI
Respond with the number and no other words.

Record excerpt, results attached:
INSERT INTO measurements (molecule, reported_value) VALUES
  ('N[C@@H](CCNCc1ccc(Cl)cc1)C(=O)N1CCC(F)CC1', 180000),
  ('N[C@@H](CCNCC1CCCCC1)C(=O)N1CCCCC1', 450000),
  ('COc1ccc(CNCC[C@H](N)C(=O)N2CCCCC2)cc1', 630000),
  ('N[C@@H](CCNCc1ccccc1)C(=O)N1CCCCC1', 120000);

Ask | Please report the recorded SI for N#CC1CCCCN1C(=O)[C@@H](N)CCNCc1ccc(Cl)cc1 (stereo partly specified) .
Reply | 2000

Ask | What would you report for N[C@@H](CCNCc1ccc2ccccc2c1)C(=O)N1CCCCC1 ?
Reply | 160000

Ask | What would you report for N#Cc1cccc(CNCC[C@H](N)C(=O)N2CCCCC2)c1 ?
Reply | 50000

Ask | What would you report for N[C@@H](CCNCCc1ccccc1)C(=O)N1CCCCC1 ?
Reply | 210000

Ask | What would you report for CN(CC[C@H](N)C(=O)N1CCCCC1)Cc1ccc(Cl)cc1 ?
Reply | 890000

Ask | What would you report for COc1cccc(CNCC[C@H](N)C(=O)N2CCCCC2)c1 ?
Reply | 140000

* * *

Listed next: entries and their corresponding IC50.
Biological target: Dipeptidyl peptidase 2 (Homo sapiens, UniProt Q9UHL4)
# number only, unit nM dropped from output

Ask | Please report the recorded IC50 for NCC[C@H](NCc1ccccc1)C(=O)N1CCCCC1 .
Reply | 12.5

Ask | What would you report for CC1CCCCN1C(=O)[C@@H](N)CCNCc1ccc(Cl)cc1 (stereo not given in full) ?
Reply | 2.3

Ask | What would you report for CC(=O)NCC[C@H](N)C(=O)N1CCCCC1 ?
Reply | 1.5

Ask | What would you report for N[C@@H](CCNCc1ccc(OCc2ccccc2)cc1)C(=O)N1CCCCC1 ?
Reply | 0.41

Ask | What would you report for COc1ccc(CNCC[C@H](N)C(=O)N2CCCCC2)cc1 ?
Reply | 0.66

Cited source for all entries: ChEMBL document CHEMBL1148463
